Test system: MDA-MB-231 complex spheroids, growth inhibition
Assay: Anticancer human tumor MDA-MB-231 cell line growth inhibition [Asc];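 note: spheroids exposed to compounds for 7 days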
Conditions: second compound 1 µM; first compound 3.16 µM; hits give low values
The entries below come with measured viability, T/C values attached.

Known viability, T/C results, listed for orientation:
{"compound": "C=C(F)C(=O)N1CCN(c2nc(OCC3CCCN3C)nc3c2CCN(c2cccc4cccc(Cl)c24)C3)CC1CC#N (stereo not drawn) + CNC(C)C(=O)NC1CN(S(=O)(=O)c2cccc(S(=O)(=O)N3CCC4CCC(C(=O)NC(c5ccccc5)c5ccccc5)N4C(=O)C(NC(=O)C(C)NC)C3)c2)CCC2CCC(C(=O)NC(c3ccccc3)c3ccccc3)N2C1=O", "testReadout": "viability, T/C", "endpointValue": "0.43%"}
{"compound": "C#Cc1c(F)ccc2cc(O)cc(-c3ncc4c(N5CC6CCC(C5)N6)nc(OCC56CCCN5CC(F)C6)nc4c3F)c12 (stereo not drawn) + CNC(C)C(=O)NC1CN(S(=O)(=O)c2cccc(S(=O)(=O)N3CCC4CCC(C(=O)NC(c5ccccc5)c5ccccc5)N4C(=O)C(NC(=O)C(C)NC)C3)c2)CCC2CCC(C(=O)NC(c3ccccc3)c3ccccc3)N2C1=O", "testReadout": "viability, T/C", "endpointValue": "53.4%"}
{"compound": "C=CC(=O)N1CCN(c2nc(=O)n(-c3c(C)ccnc3C(C)C)c3nc(-c4c(O)cccc4F)c(F)cc23)C(C)C1 (stereo not drawn) + Cc1c(S(C)(=O)=O)c(-c2cc(F)cc(N3CCN(c4ccc(NS(=O)(=O)c5ccc(NC(CCN6CCC(C(=O)OCCCP(=O)(O)O)CC6)CSc6ccccc6)c(S(=O)(=O)C(F)(F)F)c5)cc4)CC3)c2)c(-c2ccc(Cl)cc2)n1C(C)C", "testReadout": "viability, T/C", "endpointValue": "109%"}
{"compound": "C=CC(=O)N1CCN(c2nc(=O)n(-c3c(C)ccnc3C(C)C)c3nc(-c4c(O)cccc4F)c(F)cc23)C(C)C1 (stereo not drawn) + CNC(C)C(=O)NC1CN(S(=O)(=O)c2cccc(S(=O)(=O)N3CCC4CCC(C(=O)NC(c5ccccc5)c5ccccc5)N4C(=O)C(NC(=O)C(C)NC)C3)c2)CCC2CCC(C(=O)NC(c3ccccc3)c3ccccc3)N2C1=O", "testReadout": "viability, T/C", "endpointValue": "1.35%"}
{"compound": "C#Cc1c(F)ccc2cc(O)cc(-c3ncc4c(N5CC6CCC(C5)N6)nc(OCC56CCCN5CC(F)C6)nc4c3F)c12 (stereo not drawn) + Cc1c(S(C)(=O)=O)c(-c2cc(F)cc(N3CCN(c4ccc(NS(=O)(=O)c5ccc(NC(CCN6CCC(C(=O)OCCCP(=O)(O)O)CC6)CSc6ccccc6)c(S(=O)(=O)C(F)(F)F)c5)cc4)CC3)c2)c(-c2ccc(Cl)cc2)n1C(C)C", "testReadout": "viability, T/C", "endpointValue": "59.6%"}
{"compound": "C=C(F)C(=O)N1CCN(c2nc(OCC3CCCN3C)nc3c2CCN(c2cccc4cccc(Cl)c24)C3)CC1CC#N (stereo not drawn) + Cc1c(S(C)(=O)=O)c(-c2cc(F)cc(N3CCN(c4ccc(NS(=O)(=O)c5ccc(NC(CCN6CCC(C(=O)OCCCP(=O)(O)O)CC6)CSc6ccccc6)c(S(=O)(=O)C(F)(F)F)c5)cc4)CC3)c2)c(-c2ccc(Cl)cc2)n1C(C)C", "testReadout": "viability, T/C", "endpointValue": "8.81%"}
{"compound": "O=C(c1cc(Cc2n[nH]c(=O)c3ccccc23)ccc1F)N1CCN(C(=O)C2CC2)CC1 + Cc1c(S(C)(=O)=O)c(-c2cc(F)cc(N3CCN(c4ccc(NS(=O)(=O)c5ccc(NC(CCN6CCC(C(=O)OCCCP(=O)(O)O)CC6)CSc6ccccc6)c(S(=O)(=O)C(F)(F)F)c5)cc4)CC3)c2)c(-c2ccc(Cl)cc2)n1C(C)C", "testReadout": "viability, T/C", "endpointValue": "77.5%"}

Now for the compound whose viability, T/C we want.
Prompt: Query: viability, T/C; subject: O=C(c1cc(Cc2n[nH]c(=O)c3ccccc23)ccc1F)N1CCN(C(=O)C2CC2)CC1 + CNC(C)C(=O)NC1CN(S(=O)(=O)c2cccc(S(=O)(=O)N3CCC4CCC(C(=O)NC(c5ccccc5)c5ccccc5)N4C(=O)C(NC(=O)C(C)NC)C3)c2)CCC2CCC(C(=O)NC(c3ccccc3)c3ccccc3)N2C1=O
Completion: 0.82%
